Every entry's value here was drawn from patent US20130096170A1.

Test: clinical
Settings: human, plasma, intravenous, Vss Median, Dose Level 1, LD 0.25/CD 0.2 μg/kg/hr; full evaluable population
recorded-metric: Vd (L)
Report as a plain number; the unit L is understood.

Form: compound = Cc1cccc([C@H](C)c2cnc[nH]2)c1C ; Vd = 40.3
